self-cleavage kobs at 160 uM GlcN6P values for the variants below.
B1: glmS ribozyme (parent)
chain: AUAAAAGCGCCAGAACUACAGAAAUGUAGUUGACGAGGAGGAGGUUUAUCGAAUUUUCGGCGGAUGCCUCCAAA

Variants of: B1
Assay: self-cleavage kobs at 160 uM GlcN6P; higher = faster cleavage; RNA array
Settings: with glucosamine-6-phosphate
Fewer inactive variants are shown than the library holds.

Guide cases for self-cleavage kobs at 160 uM GlcN6P, answers given:
C10A U49A | < 1e-05 s⁻¹
A14C U65G C70U | 4.59e-05 s⁻¹
A39G G41C U46G A64U | < 1e-05 s⁻¹
G9C A15U G43U | < 1e-05 s⁻¹
C10U U69G | 2.85e-05 s⁻¹

Field request: self-cleavage kobs at 160 uM GlcN6P | item: G35C C71G
< 1e-05 s⁻¹

Repeat for the following variant: A6C G32U A64G C67U
< 1e-05 s⁻¹

Here is the next variant: C11U C67A
4.36e-05 s⁻¹

Here is the next variant: G40U G44U
< 1e-05 s⁻¹

Query C10G G32C next
< 1e-05 s⁻¹

How about A48U C50U C58A ?
< 1e-05 s⁻¹
